Quick list: ED50 per entry.
Tested on: anaesthetised, open-chest beagle dogs
Assay: in vivo inotropic and vasodilatory activity, bolus intravenous injection
Settings: Canis lupus familiaris, bolus intravenous injection, read-out: ED50L.V. dP/dt (effective intravenous dose of compound to produce a 50% increase in L.V. dP/dt)

A selection of reference data follows.
> print(dat)
                                   molecule      result
1  COc1cc([S+](C)[O-])ccc1-c1cn2ccnc(OC)c2n1 (stereo not drawn) [Example 3]  0.91 mg/kg
2  COc1cc([S+](C)[O-])ccc1-c1cn2ccncc2n1 (stereo not drawn) [X, reference compound]  0.75 mg/kg
3  COc1cc(C(N)=O)ccc1-c1cn2ccncc2n1 [Example 1]  0.02 mg/kg

ED50 measured on COc1cc(C(C)=O)ccc1-c1cn2ccncc2n1 [Example 7] = 0.03 mg/kg

Form field ED50, entry COc1cc(C(N)=O)ccc1-c1cn2ccnc(OC)c2n1.Cl [Example 5] : 0.06 mg/kg

COc1cc(OS(C)(=O)=O)ccc1-c1cn2ccnc(OC)c2n1 [Example 4] has a reported ED50 of 0.07 mg/kg

----------
System: anaesthetised, open-chest beagle dogs
Experiment: in vivo inotropic and vasodilatory activity, bolus intravenous injection
Conditions: Canis lupus familiaris, bolus intravenous injection, read-out: ED30D.B.P. (effective intravenous dose to produce a 30% decrease in diastolic blood pressure)
Would you mind labelling by ED30? At or over 0.1 mg/kg is rule met, under is rule not met.

Observe how each entry below is paired with its result.
> print(dat)
                                   compound  category.label
1  COc1cc([S+](C)[O-])ccc1-c1cn2ccnc(OC)c2n1 (stereo not drawn) [Example 3]        rule met
2  COc1cc(C(N)=O)ccc1-c1cn2ccnc(OC)c2n1.Cl [Example 5]        rule met
3  COc1cc(C(N)=O)ccc1-c1cn2ccncc2n1 [Example 1]    rule not met
4  COc1cc(OS(C)(=O)=O)ccc1-c1cn2ccnc(OC)c2n1 [Example 4]    rule not met

Q: Hi, just wondering whether COc1cc([S+](C)[O-])ccc1-c1cn2ccncc2n1 (stereo not drawn) [X, reference compound] shows ED30 of 0.1 mg/kg or higher.
A: rule not met
